readout: melting point

Lab book: melting point of NCC1(C(=O)O)CC12CCCC2 (stereo not shown) noted as 231 to 235 °C (dec.)

Lab book: melting point of CCCC1(CCC)CC1(CN)C(=O)O (stereo not shown) noted as 255 to 257 °C

Lab book: melting point of Cl.NCC1(C(=O)O)CC12CCCCC2 (stereo not shown) [Example 14] noted as 240 to 242 °C

Lab book: melting point of CC(C)CC1CC1(CN)C(=O)O.Cl (stereo not shown) [Example 15] noted as 254 to 255 °C

Lab book: melting point of CC(C)C1CC1(CN)C(=O)O.Cl (stereo not shown) noted as 245 to 246 °C

Lab book: melting point of NCC1(C(=O)O)CC1C1CCCCC1 (stereo not shown) noted as 270 °C (dec.)

Lab book: melting point of CC(C)CC1CC1(CN)C(=O)O.Cl (stereo not shown) [Example 6] noted as > 220 °C (dec.)
